In this section, each of the variants is paired with its reported yeast fitness.
B1: tRNA (parent)
chain: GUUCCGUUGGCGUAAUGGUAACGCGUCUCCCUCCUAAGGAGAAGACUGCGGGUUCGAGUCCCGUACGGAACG

# Variants of: B1
# method: yeast fitness relative to wild type (ratio to wild type); higher = fitter; tRNA-Arg(CCU), competitive growth, 37 C, YPD
Variants at the floor of the assay were thinned out.
Provide a numeric answer; units are not to be included.

Please review the entries below; each comes with its answer.
{"mutant-id": "C5U C27A A42U", "yeast fitness": 0.642}
{"mutant-id": "U26G G48A C61U", "yeast fitness": 0.94}
{"mutant-id": "A14C C22A A37U", "yeast fitness": 0.646}

Data request: Param item = A42G C49G U54C G63C ; retrieve measured yeast fitness.
Data returned: 0.524

Data request: Please give the measured yeast fitness for this variant: U32G A40C
Data returned: 0.692

Data request: Request the reported yeast fitness associated with C22A U32C
Data returned: 0.869

Data request: Requested read-out: yeast fitness. Entry: C33U C34A
Data returned: 0.574

Data request: # get_value(readout='yeast fitness', item= C27A U35C )
Data returned: 0.735

Data request: Any idea what yeast fitness was measured for U2A U19C ?
Data returned: 0.867

Data request: yeast fitness for U16G A40G ?
Data returned: 0.935
